# EXPERIMENTAL_SYSTEM: Syk (Homo sapiens (Human))
# key: entry, value: pIC50
Scale note: pIC50 = -log10(concentration in M).

* COc1cc(Nc2nccc(Oc3ccc(NC(=O)Nc4cc(C(C)C)nn4-c4ccc(C)cc4)c4ccccc34)n2)cc(S(=O)(=O)C2CC2)c1 [Example 18] | 6.45

Lab note: next molecule to report on.
Q: Answer briefly: pIC50 recorded on Syk (Homo sapiens (Human)) for COc1cc(Nc2nccc(Oc3ccc(NC(=O)Nc4cc(C(C)(C)C)nn4-c4ccc(C)cc4)c4ccccc34)n2)cc(OCCOCCOCCO)c1 [Example 62]
A: 8.22
